# ASSAYED_TARGET: Kv 1.2 (Homo sapiens, UniProt P16389)
# Construct: gene KCNA2; cDNA stably transfected in HEK293 cells; expressed alone (homotetramer)
# Sequence (P16389 whole entry): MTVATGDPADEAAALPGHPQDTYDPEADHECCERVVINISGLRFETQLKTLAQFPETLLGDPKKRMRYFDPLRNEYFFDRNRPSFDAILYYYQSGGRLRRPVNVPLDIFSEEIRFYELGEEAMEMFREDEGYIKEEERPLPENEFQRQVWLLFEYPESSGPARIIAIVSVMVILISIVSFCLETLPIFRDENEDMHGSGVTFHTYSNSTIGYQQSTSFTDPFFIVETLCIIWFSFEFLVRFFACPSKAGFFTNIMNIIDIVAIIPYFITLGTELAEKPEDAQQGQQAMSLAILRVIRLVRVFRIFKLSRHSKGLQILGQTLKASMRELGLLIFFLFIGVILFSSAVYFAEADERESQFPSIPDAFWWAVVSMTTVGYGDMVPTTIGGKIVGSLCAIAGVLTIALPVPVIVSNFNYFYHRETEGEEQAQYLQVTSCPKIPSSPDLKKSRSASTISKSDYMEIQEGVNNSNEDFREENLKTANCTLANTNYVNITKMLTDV
# EXPERIMENT_DESCRIPTION: automated whole-cell patch clamp (PatchXpress), peak current
# Assay type: cell-based
EXPERIMENTAL_ENDPOINT: IC50

Provide only the value of recorded IC50 for Nc1ccncc1O [3-hydroxy-4-aminopyridine]
23700 µM
